- protocolNotes: stimulators of insulin release from INS-1E, primary screen, cell-based, 5 mM glucose, NPC library (AID 1117329); further: reference of the scale not given here
- experimentalContext: rat INS-1E insulin secretion, at 10 µM, stronger effect = higher value
Recorded insulin secretion stimulation by entry
Please respond with the number in % and leave the unit unwritten.

The examples below pair each entry with its known result.
# compound, insulin secretion stimulation, %
data = [
    ("CC(C)(C)c1ccc(C(=O)CCCCl)cc1", 3.7),
    ("O=S(=O)(O)CC(S)CS (stereo not drawn)", -3.4),
    ("CCOC(=O)C(=O)CCCCCCl", 1.45),
    ("CCCCCC[C@@H](CCC)C(=O)O", 0.3),
    ("O=C(O)[C@@H]1C(=CCO)O[C@@H]2CC(=O)N12", 2.2),
    ("O=C1NC(=O)C(c2ccccc2)(c2ccccc2)N1", -0.3),
]

// next entry
Query: Quick check: insulin secretion stimulation of CCOC(=O)c1cccc(N)c1 ?
Response: 1.3

====

- testSystem: Cellular tumor antigen p53 (Homo sapiens) (UniProt P04637)
- Sequence (P04637 whole entry, looked up): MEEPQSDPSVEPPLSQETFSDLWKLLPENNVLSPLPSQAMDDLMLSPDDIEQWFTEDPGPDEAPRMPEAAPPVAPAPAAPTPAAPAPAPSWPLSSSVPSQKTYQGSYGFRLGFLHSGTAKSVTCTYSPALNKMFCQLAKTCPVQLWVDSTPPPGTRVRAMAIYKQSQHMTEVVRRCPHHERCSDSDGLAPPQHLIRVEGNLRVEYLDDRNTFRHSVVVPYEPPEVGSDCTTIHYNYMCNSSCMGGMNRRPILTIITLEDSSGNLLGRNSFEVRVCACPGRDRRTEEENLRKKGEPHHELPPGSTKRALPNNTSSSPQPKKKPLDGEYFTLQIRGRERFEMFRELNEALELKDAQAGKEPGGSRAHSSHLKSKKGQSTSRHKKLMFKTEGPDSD
- protocolNotes: kinase inhibitors altering GFP-p53 stability in HPV16-positive cells, imaging, known kinase inhibitor set, EGFP/DsRed ratio (AID 1053116);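 further: cells exposed to compounds for 24 h at 37 °C before reading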
- experimentalContext: stronger effect = higher value; measured here: GFP-p53 positive objects count
Recorded EGFP object count by entry
Keep the answer to the number alone.

The examples below pair each entry with its known result.
# compound, readoutType, measured
rows = [
    ("COc1ccc(-c2coc3ncnc(N)c23)cc1", "EGFP object count", 4),
    ("Cc1cccc2c(C3=C(c4cn(C)c5ccccc45)C(=O)NC3=O)cn(C)c12", "EGFP object count", 24),
    ("CCn1c(-c2nonc2N)nc2cnc(Oc3cccc(NC(=O)c4ccc(N(C)C)cc4)c3)cc21", "EGFP object count", 3.5),
    ("COC(=O)Nc1nc2ccc(Oc3ccc(NC(=O)Nc4cc(C(F)(F)F)ccc4F)cc3)cc2s1", "EGFP object count", 18.5),
    ("COc1ccc(-c2nn3ncccc3c2-c2ccnc(Nc3ccc(F)c(F)c3)n2)cc1", "EGFP object count", 4.5),
]

Query: Quick check: EGFP object count of Cc1cc(-c2ccco2)cc(C)c1/C=C/c1cncc(-c2nn[nH]n2)c1 ?
Response: 3.5

Query: Quick check: EGFP object count of CC(=O)NC(Cc1ccc(OP(=O)(O)O)cc1)C(=O)NC1CCC(=O)N2CCCC(C(=O)NCc3ccccc3)N2C1=O (stereo not given) ?
Response: 1.5

Query: Quick check: EGFP object count of Cn1cc(C2=C(c3ccccc3[N+](=O)[O-])C(=O)NC2=O)c2ccccc21 ?
Response: 19

====

- protocolNotes: inhibitors of polyQ protein aggregation (AID 1604)
- experimentalContext: polyglutamine-induced protein aggregation inhibition assay; stronger effect = higher value; concentration not given here
readoutType: inhibition of aggregation
Express the reported value numerically, then name its unit.

# molecule, inhibition of aggregation
data = [
    ("CC(C)(C)NCC(O)COc1cccc2c1C[C@H](O)[C@H](O)C2 (some centres not stated)", "78.2%"),
]

Query: Quick check: inhibition of aggregation of CC1COc2c(N3CCN(C)CC3)c(F)cc3c(=O)c(C(=O)O)cn1c23 (configuration not stated) ?
Response: 67.8%

Query: Quick check: inhibition of aggregation of NC(=O)N1c2ccccc2C=Cc2ccccc21 ?
Response: 83.1%

Query: Quick check: inhibition of aggregation of CN1CCN(CCCN2c3ccccc3Sc3ccc(C(F)(F)F)cc32)CC1 ?
Response: 65.5%

Query: Quick check: inhibition of aggregation of O=C(c1ccccc1)c1ccc2n1CCC2C(=O)O (configuration not stated) ?
Response: 60.8%

Query: Quick check: inhibition of aggregation of NNC(=O)c1ccncc1 ?
Response: 30.1%

Query: Quick check: inhibition of aggregation of NCc1ccc(S(N)(=O)=O)cc1 ?
Response: 81.7%

Query: Quick check: inhibition of aggregation of CCCCc1oc2ccccc2c1C(=O)c1cc(I)c(OCCN(CC)CC)c(I)c1 ?
Response: 28.8%

Query: Quick check: inhibition of aggregation of NC(=O)c1cnccn1 ?
Response: 69.8%

Query: Quick check: inhibition of aggregation of CCCSc1ccc2nc(NC(=O)OC)[nH]c2c1 ?
Response: 11.8%

Query: Quick check: inhibition of aggregation of Cc1c(OCC(F)(F)F)ccnc1CS(=O)c1nc2ccccc2[nH]1 (configuration not stated) ?
Response: 29.4%

Query: Quick check: inhibition of aggregation of COc1cc2nc(N3CCN(C(=O)c4ccco4)CC3)nc(N)c2cc1OC ?
Response: 70.4%
